Sourced from PubChem BioAssay (EPA / NIEHS)

# TEST METHOD NOTES: ATG_M_19_CIS: Attagene CIS-FACTORIAL HepG2 Assay for M19 Transcription Factor (Internal Marker) (AID 2282939)
# RECORDED CONDITIONS: HepG2 Attagene CIS-FACTORIAL M19 internal marker reporter; actives raise or lower the signal
Active and inactive are the calls of the source. Rule for the calls: active = hit-call score of the fitted dose curve at least 0.9, where 1 is the maximum; inactive = score below 0.9.
Result category, one only: 1 = active, 0 = inactive

Use the examples below as a reference point.
| COMPOUND | LABEL |
| --- | --- |
| Cc1cc(-c2cc(C)c(N)c(C)c2)cc(C)c1N | 0 |
| O=CCCl | 0 |
| O=C(NC(=O)c1c(F)cccc1F)Nc1ccc(Cl)cc1 | 0 |
| Nc1nc(=S)[nH][nH]1 | 0 |
| OCC(c1ccc(Cl)cc1)c1ccc(Cl)cc1 | 1 |
| O=C/C(Cl)=C(/Cl)C(=O)O | 0 |

For the next question, use this compound.
Exam item: Tell me the recorded outcome of this test for `O=C(O)CC(O)(CC(=O)O)C(=O)O` .
Marked response: 0
